Source listed as PubChem BioAssay.

# measurement-notes: S6 kinase pathway phospho-S6 level changes – cell-based, A549, cytoblot, luminescence, serum-stimulated, primary screen (AID 1158);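 note: serum-stimulated A549 lung adenocarcinoma cells; signal is phosphorylated S6 detected by cytoblot immunostaining with HRP secondary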
# condition-notes: 5 h, higher = more signal
Threshold check on z-score: at or above 0.3 gives True, strictly below gives False.

Enquiry: // inclusive: z-score at least 0.3? input: N#Cc1ccc(NN2C(C(O)c3ccccc3)C=CC3C(=O)N(c4ccccc4)C(=O)C32)cc1 (configuration not stated)
Return: False

Enquiry: // inclusive: z-score at least 0.3? input: `O=c1c2ccc(Br)cc2nc(-c2ccccc2)n1Cc1cccc(O)c1`
Return: False

Enquiry: // inclusive: z-score at least 0.3? input: `COCCOC(=O)N1C(=O)[C@@]2(c3cc(C#Cc4ccc(OC)cc4)ccc31)[C@H](C(N)=O)[C@H]1C(=O)O[C@H](c3ccccc3)[C@H](c3ccccc3)N1[C@@H]2c1ccc(OCCO)cc1`
Return: False

Enquiry: // inclusive: z-score at least 0.3? input: `COCCCNC(=O)[C@]1(Cc2ccccc2CN=[N+]=[N-])N=C(c2ccc(OCCCO)cc2)O[C@@H]1c1ccccc1CN=[N+]=[N-]`
Return: True

Enquiry: // inclusive: z-score at least 0.3? input: `CN(C)C(=O)[C@@]1(CCS(=O)(=O)c2ccccc2)N=C(c2ccc(OCCCO)cc2)O[C@H]1c1ccccc1CN=[N+]=[N-]`
Return: True

Enquiry: // inclusive: z-score at least 0.3? input: `CN(C)CCCN1C(=O)[C@@]2(Cc3ccccc31)c1ccccc1C(=O)N(Cc1ccccc1)[C@H]2c1ccc(CO)cc1`
Return: True

Enquiry: // inclusive: z-score at least 0.3? input: O=C1c2ccccc2C(=O)C2CC([C@H]3Oc4ccccc4S(=O)(=O)N4CCC[C@@H]34)=CCC12 (some centres not stated)
Return: False

Enquiry: // inclusive: z-score at least 0.3? input: `COc1ccc(C(=O)Nc2ccc(CN3C(=O)[C@]4(O[C@H](CCn5cc([C@H](O)c6ccccc6)nn5)[C@@H]([Si](C)(C)c5ccc(OC)cc5)[C@@H]4C)c4ccccc43)cc2)cc1`
Return: True

Enquiry: // inclusive: z-score at least 0.3? input: `CCC[C@@H]1C[C@@]1(CCC)[C@@H](NC(=O)c1ccco1)c1ccc(Cl)cc1`
Return: False

Enquiry: // inclusive: z-score at least 0.3? input: `CC(C)N1C(=O)c2ccccc2[C@](C)(C(=O)O)[C@@H]1c1ccc(CO)cc1`
Return: False

Enquiry: // inclusive: z-score at least 0.3? input: `COC(=O)C(CC#Cc1ccc2c(c1)[C@]1(C(=O)N2)[C@H](c2ccccc2OCCO)N2[C@H](c3ccccc3)[C@H](c3ccccc3)OC(=O)[C@H]2[C@@H]1C(=O)Nc1nc2ccccc2s1)C(=O)OC`
Return: True

Enquiry: // inclusive: z-score at least 0.3? input: CC(C)C[C@H]1NC(=O)[C@H](C)NC(=O)[C@@]23C(=O)N[C@@H](Cc4ccccc4)C2[C@H](C)[C@@]2(C)O[C@H]2C3/C=C/C/C=C\CNC1=O (some centres not stated)
Return: False

====

# measurement-notes: resazurin metabolic signal in A549 cells – cell-based, resazurin fluorescence, 24 h, PK04 Diversity Set, profiling panel (AID 1171); note: test concentration not given here
# condition-notes: A549 viability, higher = more signal, called active from +8 up or from −8 down
Active and inactive are the calls of the source.
endpoint: z-score

compound	z-score
CCN(CC)c1ccc(N2CC=CC34O[C@@H]5/C=C\CCCOC(=O)C5[C@H]3C(=O)N(CCCCCCO)[C@@H]4C2=O)cc1 (stereo not given in full)	0.0444 (inactive)
CC[C@@H]1[C@@H]2C3C(=O)N(CC)C(=O)C3CC(=O)[C@@H]2[C@H](c2ccc(C)cc2)N1S(=O)(=O)c1ccc(C)cc1 (stereo not given in full)	-0.195 (inactive)
CN(C)C(=O)[C@@]1(CCS(=O)(=O)c2ccccc2)N=C(c2ccc(OCCCO)cc2)O[C@H]1c1ccccc1CN=[N+]=[N-]	0.712 (inactive)
Cc1ccc(F)cc1S(=O)(=O)N[C@@H]1CCN(C(=O)c2ccc(OC(C)C)cc2)C1	-0.216 (inactive)
COc1ccc([Si](C)(C)[C@H]2[C@H](CC(=O)N3CCC[C@H]3CO)O[C@@]3(C(=O)N(Cc4ccc(N5C(=O)c6cccc7cccc5c67)cc4)c4ccccc43)[C@@H]2C)cc1	-1.28 (inactive)
C=C(CCCC)/C(=C/C[C@@H](OC(=O)c1ccncc1)c1ccccc1OCCO)c1cc(C(=O)OC)ccc1OC	0.17 (inactive)

Enquiry: Check the records and state z-score for `C[N+](C)(C)CCCC[C@@H]1NC(=O)[C@H]2C[C@@H](C(=O)NCCCCCCN)[C@@H](c3cccc(OCCO)c3)N2C1=O`
Return: -0.871 (inactive)

Enquiry: Check the records and state z-score for `CC(=O)NCCCC[C@@H]1NC(=O)[C@H]2C[C@@H](C(=O)NCCCCCN)[C@@H](c3cccc(OCCO)c3)N2C1=O`
Return: 1.1 (inactive)

Enquiry: Check the records and state z-score for `[N-]=[N+]=Nc1ccccc1C[C@]1(C(=O)NCCN2CCOCC2)N=C(c2ccc(OCCCO)cc2)O[C@H]1c1ccccc1N=[N+]=[N-]`
Return: -2.47 (inactive)

Enquiry: Check the records and state z-score for `C=C(/C(=C/C[C@@H](OC(=O)c1ccncc1)c1cccc(OCCO)c1)c1cc(C(=O)OC)ccc1OC)C(C)C`
Return: 0.804 (inactive)
